The reported measurements were obtained from patent US11597745B2.

# experiment: Cytotoxicity evaluation, MTT assay
# Assay type: cell-based
# test_context: human; MT-4 cells, MTT, 5th day of culture
outcome_measure: CC50 at 5 day

Quick check: CC50 at 5 day of C[Se]C1[C@@H](O)[C@@H](COP(O)(=N[C@@H](C)C(=O)OC(C)C)Oc2ccccc2)O[C@H]1n1cnc2c(N)ncnc21 (stereo partly shown) [Pro SelenoA] ?
> 100 µM
